Source listed as ChEMBL document CHEMBL5150030.

- protocol description: Toxicity in mouse assessed as maximum tolerated dose administered intraperitoneally measured upto 21 days for every 3 days
- assay context: in vivo, route ip, time < 21 day
measured attribute: MTD at 504 h (mg/kg)

1. CC[C@H](C)[C@@H]([C@@H](CC(=O)N1CCC[C@H]1[C@H](OC)[C@@H](C)C(=O)N[C@H](C)[C@@H](O)c1ccccc1)OC)N(C)C(=O)[C@@H](NC(=O)[C@H](C(C)C)N(C)C(=O)OCc1ccc(NC(=O)[C@H](CCCNC(N)=O)NC(=O)[C@@H](NC(=O)[C@H](CCC(=O)O)NC(=O)CCCCCN2C(=O)CC(SCCC(=O)NC(Cc3cn(CCOCCOCCNCCCCCCOc4cc(OCCCc5c(C)n[nH]c5C)cc(C(=O)O)c4)nn3)C(=O)NCCCCCC(=O)NCCCC[C@H](NC(=O)N[C@@H](CCC(=O)O)C(=O)O)C(=O)O)C2=O)C(C)C)cc1)C(C)C (some centres not stated)    3.1
2. C#CCC(NC(=O)CCSC1CC(=O)N(CCCCCC(=O)N[C@@H](CCC(=O)O)C(=O)N[C@H](C(=O)N[C@@H](CCCNC(N)=O)C(=O)Nc2ccc(COC(=O)N(C)[C@H](C(=O)N[C@H](C(=O)N(C)[C@@H]([C@@H](C)CC)[C@@H](CC(=O)N3CCC[C@H]3[C@H](OC)[C@@H](C)C(=O)N[C@H](C)[C@@H](O)c3ccccc3)OC)C(C)C)C(C)C)cc2)C(C)C)C1=O)C(=O)NCCCCCC(=O)NCCCC[C@H](NC(=O)N[C@@H](CCC(=O)O)C(=O)O)C(=O)O (some centres not stated)    5
